Hi there, I'd appreciate the recorded pKi for every entry that follows.
- protocolNotes: Competitive inhibition of rabbit liver guanase assessed as guanine hydrolysis rate by Lineweaver-Burk plot method
- Design: species or system Oryctolagus cuniculus
Just so you know, pKi here is -log10 of the concentration in molar units; reply with that number alone.

Input O=C1NC(O)CNc2nc[nH]c21 (racemic) [AZEPINOMYCIN] . Output pKi: 5.60

Looking up "O=C1N[C@@H](O)CNc2c1ncn2[C@@H]1O[C@H](CO)[C@@H](O)[C@H]1O" , I see its pKi listed as 3.92

// field: pKi; key: "O=C1N[C@H](O)CNc2c1ncn2[C@@H]1O[C@H](CO)[C@@H](O)[C@H]1O" ; value = 3.89
